The reported measurements were obtained from the supplement of paper PMC4022240.

The binders listed here are annotated with their peptide microarray binding signal.
# experimental-system: HaloTag-ING2 PHD (mouse Ing2 200-280)
# test-description: peptide microarray binding signal (635 nm), min-max normalized on array (fraction of array maximum); higher = stronger binding
# test-context: peptide region: Unmod H1 variant; binder concentration: 100 nM
observed-property: peptide microarray binding signal

| binder | observed-property | readout-value |
| --- | --- | --- |
| VKKKARKSAGAAK [Unmod H1 variant V K K K A R K S A G A A K] | peptide microarray binding signal | 0.00553 |
| KAAAASKKKPAGP [Unmod H1 variant K A A A A S K K K P A G P] | peptide microarray binding signal | 0.0034 |
| AVAASKERSGVSL [Unmod H1 variant A V A A S K E R S G V S L] | peptide microarray binding signal | 0.0228 |
